Attribution: ChEMBL document CHEMBL4011632

# TGT: Glutaminase kidney isoform, mitochondrial (Homo sapiens, UniProt O94925)
# Sequence (O94925 whole entry): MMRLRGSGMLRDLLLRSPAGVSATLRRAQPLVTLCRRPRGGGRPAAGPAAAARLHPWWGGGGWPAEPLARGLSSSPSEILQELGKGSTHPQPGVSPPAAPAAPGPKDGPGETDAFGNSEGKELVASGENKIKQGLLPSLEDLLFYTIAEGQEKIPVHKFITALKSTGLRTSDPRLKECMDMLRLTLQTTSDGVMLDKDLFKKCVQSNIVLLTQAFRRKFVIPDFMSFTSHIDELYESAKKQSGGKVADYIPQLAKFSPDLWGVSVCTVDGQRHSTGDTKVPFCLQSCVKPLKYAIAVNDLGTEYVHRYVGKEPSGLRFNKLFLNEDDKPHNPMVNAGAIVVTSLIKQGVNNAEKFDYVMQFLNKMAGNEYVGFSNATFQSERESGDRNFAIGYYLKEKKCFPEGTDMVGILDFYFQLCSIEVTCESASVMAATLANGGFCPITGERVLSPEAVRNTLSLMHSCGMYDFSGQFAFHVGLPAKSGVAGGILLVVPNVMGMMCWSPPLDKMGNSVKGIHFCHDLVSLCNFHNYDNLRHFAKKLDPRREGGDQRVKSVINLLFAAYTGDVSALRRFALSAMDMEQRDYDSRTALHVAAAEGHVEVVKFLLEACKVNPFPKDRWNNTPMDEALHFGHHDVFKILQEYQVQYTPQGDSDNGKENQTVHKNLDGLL
# TEST_METHOD_NOTES: Inhibition of recombinant human MCF7 cells derived His-tagged GAC (L123 to S598 residues) expressed in Escherichia coli C41(DE3)pLysS using glutamine as substrate preincubated for 10 mins followed by substrate addition measured after 60 mins by glutamate dehydrogenase coupled enzyme assay
pIC50: −log10 of the molar value.
PROPERTY: pIC50

Consider the worked cases shown below.
Problem: Given COc1cc(-n2c(C)cc(/C=C3\SC(=O)NC3=O)c2C)ccc1-c1ccc(/C=C2\SC(=O)NC2=O)cc1 , state its recorded pIC50.
Result: 6.45

Problem: Given COc1cc(-n2c(-c3ccccc3)cc(/C=C3\SC(=O)NC3=O)c2-c2ccccc2)ccc1-c1ccc(/C=C2\SC(=O)NC2=O)cc1 , state its recorded pIC50.
Result: 6.83

Problem: Given O=C1NC(=O)/C(=C/c2cc(-c3ccccc3)n(-c3ccc(Br)cc3)c2-c2ccccc2)S1 , state its recorded pIC50.
Result: 5.06

P. CCc1cc(-c2ccc(-n3c(C)cc(/C=C4\SC(=O)NC4=O)c3C)cc2C#N)ccc1/C=C1\SC(=O)NC1=O
Q. CCc1cc(-c2ccc(-n3c(-c4ccccc4)cc(/C=C4\SC(=O)NC4=O)c3-c3ccccc3)cc2)ccc1/C=C1\SC(=O)NC1=O
R. CCc1cc(-c2ccc(-n3c(-c4cccs4)cc(/C=C4\SC(=O)NC4=O)c3-c3cccs3)cc2)ccc1/C=C1\SC(=O)NC1=O
Problem: Order the records by pIC50, with each subsequent value no larger than the one before. Kindly provide the labels arranged according to the requested ordering.
Result: P, Q, R
(P: 7.04, Q: 6.66, R: 6.41)

P. CCc1cc(-c2ccc(-n3c(C)cc(/C=C4\SC(=O)NC4=O)c3C)cc2)ccc1/C=C1\SC(=O)NC1=O
Q. Cc1cc(/C=C2\SC(=O)NC2=O)c(C)n1-c1ccc(Br)cc1
Problem: Which of the two items, P and Q , has the greater recorded pIC50? Answer by quoting the chosen item's label.
Result: P

---

# Species: Homo sapiens
# TEST_METHOD_NOTES: Selectivity index, ratio of IC50 for recombinant human His-tagged GAB (P56-V602 residues) expressed in Escherichia coli C41(DE3)pLysS to IC50 for recombinant human His-tagged KGA (L123 to L669 residues) expressed in Escherichia coli BL21(DE3)pLysS
PROPERTY: Ratio IC50

Problem: Given O=C1NC(=O)/C(=C/c2ccc(-c3ccc(-n4c(-c5ccccc5)cc(/C=C5\SC(=O)NC5=O)c4-c4ccccc4)cc3)cc2)S1 , state its recorded Ratio IC50.
Result: 5.8

a. COc1cc(-n2c(-c3cccs3)cc(/C=C3\SC(=O)NC3=O)c2-c2cccs2)ccc1-c1ccc(/C=C2\SC(=O)NC2=O)cc1
b. O=C1NC(=O)/C(=C/c2ccc(-c3ccc(-n4c(-c5cccs5)cc(/C=C5\SC(=O)NC5=O)c4-c4cccs4)cc3)cc2)S1
c. Cc1cc(/C=C2\SC(=O)NC2=O)c(C)n1-c1ccc(-c2ccc(/C=C3\SC(=O)NC3=O)cc2)cc1
Problem: Order the records by Ratio IC50, with each subsequent value no larger than the one before. Kindly provide the labels arranged according to the requested ordering.
Result: c, a, b

---

# TGT: Glutaminase kidney isoform, mitochondrial (Homo sapiens, UniProt O94925)
# TEST_METHOD_NOTES: Inhibition of recombinant human MCF7 cells derived His-tagged GAC (L123 to S598 residues) expressed in Escherichia coli C41(DE3)pLysS using glutamine as substrate preincubated for 10 mins followed by substrate addition measured after 60 mins by glutamate dehydrogenase coupled enzyme assay
pIC50: −log10 of the molar value.
PROPERTY: pIC50

Problem: Given O=C1NC(=O)/C(=C/c2ccc(-c3ccc(-n4c(-c5cccs5)cc(/C=C5\SC(=O)NC5=O)c4-c4cccs4)cc3)cc2)S1 , state its recorded pIC50.
Result: 7.31

1. COc1cc(-n2c(-c3cccs3)cc(/C=C3\SC(=O)NC3=O)c2-c2cccs2)ccc1-c1ccc(/C=C2\SC(=O)NC2=O)cc1
2. Cc1cc(/C=C2\SC(=O)NC2=O)c(C)n1-c1ccc(-c2ccc(/C=C3\SC(=O)NC3=O)cc2)c(O)c1
3. O=C1NC(=O)/C(=C/c2ccc(-c3ccc(-n4c(-c5ccccc5)cc(/C=C5\SC(=O)NC5=O)c4-c4ccccc4)cc3)cc2)S1
Problem: Arrange the 3 compounds by rising pIC50, starting with the smallest. Kindly provide the labels arranged according to the requested ordering.
Result: 2, 3, 1

---

# Test system: ASPC1
# TEST_METHOD_NOTES: Anticlonogenic activity against human Aspc-1 cells at 2 uM after 21 days by crystal violet staining based assay relative to control
# Type: functional
# TEST_CONTEXT: ASPC1, 504 h
PROPERTY: inhibition at 2 µM (%)
State the answer as a number, implicitly in %.

Consider the worked cases shown below.
Problem: Short answer please: inhibition at 2 µM, ASPC1, entry O=C1NC(=O)/C(=C/c2ccc(-c3ccc(-n4c(-c5ccccc5)cc(/C=C5\SC(=O)NC5=O)c4-c4ccccc4)cc3)cc2)S1
Result: 79

Problem: Short answer please: inhibition at 2 µM, ASPC1, entry O=C1NC(=O)/C(=C/c2ccc(-c3ccc(-n4c(-c5cccs5)cc(/C=C5\SC(=O)NC5=O)c4-c4cccs4)cc3)cc2)S1
Result: 64

Problem: Short answer please: inhibition at 2 µM, ASPC1, entry O=C(Cc1ccccc1)Nc1nnc(CCSCCc2nnc(NC(=O)Cc3ccccc3)s2)s1
Result: 41

Problem: Short answer please: inhibition at 2 µM, ASPC1, entry COc1cc(-n2c(-c3ccccc3)cc(/C=C3\SC(=O)NC3=O)c2-c2ccccc2)ccc1-c1ccc(/C=C2\SC(=O)NC2=O)cc1
Result: 90

Next:
Problem: Short answer please: inhibition at 2 µM, ASPC1, entry CCc1cc(-c2ccc(-n3c(C)cc(/C=C4\SC(=O)NC4=O)c3C)cc2)ccc1/C=C1\SC(=O)NC1=O
Result: 28

Problem: Short answer please: inhibition at 2 µM, ASPC1, entry Cc1cc(/C=C2\SC(=O)NC2=O)c(C)n1-c1ccc(-c2ccc(/C=C3\SC(=O)NC3=O)cc2)cc1
Result: 13

Problem: Short answer please: inhibition at 2 µM, ASPC1, entry CCc1cc(-c2ccc(-n3c(-c4cccs4)cc(/C=C4\SC(=O)NC4=O)c3-c3cccs3)cc2)ccc1/C=C1\SC(=O)NC1=O
Result: 44

---

# Species: Homo sapiens
# TEST_METHOD_NOTES: Selectivity index, ratio of IC50 for recombinant human His-tagged GAB (P56-V602 residues) expressed in Escherichia coli C41(DE3)pLysS to IC50 for recombinant human His-tagged KGA (L123 to L669 residues) expressed in Escherichia coli BL21(DE3)pLysS
PROPERTY: Ratio IC50

Problem: Given COc1cc(-n2c(C)cc(/C=C3\SC(=O)NC3=O)c2C)ccc1-c1ccc(/C=C2\SC(=O)NC2=O)cc1 , state its recorded Ratio IC50.
Result: 8.8

I. Cc1cc(/C=C2\SC(=O)NC2=O)c(C)n1-c1ccc(-c2ccc(/C=C3\SC(=O)NC3=O)cc2)c(O)c1
II. O=C1NC(=O)/C(=C/c2cc(-c3ccccc3)n(-c3ccc(Br)cc3)c2-c2ccccc2)S1
Problem: Which of the two items, I and II , has the greater recorded Ratio IC50? Answer by quoting the chosen item's label.
Result: I
(I: 23, II: 2.4)

a. CCc1cc(-c2ccc(-n3c(C)cc(/C=C4\SC(=O)NC4=O)c3C)cc2)ccc1/C=C1\SC(=O)NC1=O
b. O=C1NC(=O)/C(=C/c2cc(-c3cccs3)n(-c3ccc(Br)cc3)c2-c2cccs2)S1
Problem: Which of the two items, a and b , has the greater recorded Ratio IC50? Answer by quoting the chosen item's label.
Result: a

1. CCc1cc(-c2ccc(-n3c(C)cc(/C=C4\SC(=O)NC4=O)c3C)cc2C#N)ccc1/C=C1\SC(=O)NC1=O
2. Cc1cc(/C=C2\SC(=O)NC2=O)c(C)n1-c1ccc(-c2ccc(/C=C3\SC(=O)NC3=O)c(Cl)c2)cc1
Problem: Compare Ratio IC50: is it lower for 1 or for 2 ? Answer by quoting the chosen item's label.
Result: 1
